Target: CEGPCR5 (Caenorhabditis elegans)
Sequence (Q18179 whole entry): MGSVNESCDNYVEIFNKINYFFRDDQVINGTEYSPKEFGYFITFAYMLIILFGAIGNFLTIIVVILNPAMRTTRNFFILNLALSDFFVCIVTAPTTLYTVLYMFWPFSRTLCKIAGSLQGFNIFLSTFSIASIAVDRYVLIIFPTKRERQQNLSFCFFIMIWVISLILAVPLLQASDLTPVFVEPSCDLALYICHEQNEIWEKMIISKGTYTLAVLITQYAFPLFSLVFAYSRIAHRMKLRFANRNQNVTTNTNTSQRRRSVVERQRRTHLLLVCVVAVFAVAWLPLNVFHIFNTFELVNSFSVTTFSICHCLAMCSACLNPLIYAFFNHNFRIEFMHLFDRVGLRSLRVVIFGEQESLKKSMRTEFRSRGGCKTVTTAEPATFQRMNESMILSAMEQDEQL
Assay: [35S]GTPγS binding assay, CEGPCR5 expressed in CHO cells
Type: biochemical, C. elegans
Procedure: Recombinant pCR3.1 clones encoding invertebrate GPCR-like receptors were transformed into wild-type CHO-K1 cells and functional expression was achieved using a temperature-shift incubation protocol. […] To assess expression, membranes were prepared from transfected CHO-K1 cells. […] Membrane protein concentration was determined using the BCA Protein Assay Reagent from Pierce (Rockford, Ill.), with bovine serum albumin (i.e., BSA) as a standard. […]
Where no end group is shown, it is not given here.
# key: entry, value: EC50

| SUBSTANCE | EC50 |
| --- | --- |
| AGAKFIRF-NH2 [AGAKFIRF-NH2] | 1 to 8 µM |
| DPSFLRF-NH2 [DPSFLRF-NH2] | 0.08 to 0.8 µM |
| EIVFHQISPIFFRF-NH2 [EIVFHQISPIFFRF-NH2] | 1 to 8 µM |
| GMPGVLRF-NH2 [GMPGVLRF-NH2] | 1 to 8 µM |
| AGPRFIRF-NH2 [AGPRFIRF-NH2] | 1 to 8 µM |
| SVPGVLRF-NH2 [SVPGVLRF-NH2] | 0.08 to 0.8 µM |
| H-GLGPRPLRF-NH2 [GLGPRPLRF-NH2] | 0.001 to 0.01 µM |

----------
Molecular target: CEGPCR7 receptor (Caenorhabditis elegans, UniProt Q18534)
Construct: Each of the 22 putative GPCR-like receptor clones appeared to contain a full-length coding region; expressed in transfected cells; host or cells: CHO-K1, transient, pCR3.1 clone, 37 to 28 C temperature shift
Sequence (Q18534 whole entry): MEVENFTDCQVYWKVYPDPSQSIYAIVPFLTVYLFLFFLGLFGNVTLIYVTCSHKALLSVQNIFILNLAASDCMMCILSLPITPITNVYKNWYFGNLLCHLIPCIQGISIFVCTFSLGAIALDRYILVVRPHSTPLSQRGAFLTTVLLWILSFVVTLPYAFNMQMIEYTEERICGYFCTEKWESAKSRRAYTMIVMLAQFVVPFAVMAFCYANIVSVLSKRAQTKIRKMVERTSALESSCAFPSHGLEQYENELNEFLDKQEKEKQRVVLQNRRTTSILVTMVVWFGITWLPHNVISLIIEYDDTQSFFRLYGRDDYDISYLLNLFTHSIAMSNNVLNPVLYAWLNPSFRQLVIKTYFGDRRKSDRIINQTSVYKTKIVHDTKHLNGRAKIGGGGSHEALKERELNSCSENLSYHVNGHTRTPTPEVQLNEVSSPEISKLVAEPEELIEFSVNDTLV
Test: [35S]GTPγS binding assay, membranes of CHO cells transfected with CEGPCR7
Type: biochemical, C. elegans
Conditions: EC50 range, Table 7; one range for the group of peptides
Procedure: Recombinant pCR3.1 clones encoding invertebrate GPCR-like receptors were transformed into wild-type CHO-K1 cells and functional expression was achieved using a temperature-shift incubation protocol. […] To assess expression, membranes were prepared from transfected CHO-K1 cells. […] Membrane protein concentration was determined using the BCA Protein Assay Reagent from Pierce (Rockford, Ill.), with bovine serum albumin (i.e., BSA) as a standard. […]
pEC50: −log10 of the molar value.

| SUBSTANCE | pEC50 |
| --- | --- |
| H-GLGPRPLRF-NH2 [GLGPRPLRF-NH2] | 6.60 to 6.70 |
